# Tested on: MILI (PIWIL2) piRISC loaded with L1MC piRNA (26 nt);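 further: 1 nM active piRISC with 0.1 nM target library at 33 °C single turnover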
# Protocol: pre-steady-state target cleavage rate (min^-1); guide: L1MC piRNA 5'p-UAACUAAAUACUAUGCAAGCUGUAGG; higher = faster piRNA-guided slicing of the target
# Test Conditions: auxiliary factor: none (no GTSF1)
Readout Kind: pre-steady-state target cleavage rate

Solved cases (8 shown):
Input Sequence: UCCUGGAUGAGCUUGCAUAGUUUUUAGUUA
Readout Kind: pre-steady-state target cleavage rate
Reported Value: 0.00471

Input Sequence: UCCUGGAUGUGCUUGCAUAGUAUUUAAGUUA
Readout Kind: pre-steady-state target cleavage rate
Reported Value: 0.00961

Input Sequence: UCCUGGAUGUGCUCGCAUAGUAUUUAGUUA
Readout Kind: pre-steady-state target cleavage rate
Reported Value: 0.00981

Input Sequence: UCCUGGAUGUCCUUGCAAAGUAUUUAGUAA
Readout Kind: pre-steady-state target cleavage rate
Reported Value: 0.00418

Input Sequence: UCCUCCUACUGCUUGGAUAGUAUUUAGUUA
Readout Kind: pre-steady-state target cleavage rate
Reported Value: 0.011

Input Sequence: UCCUGGAACAGCUAGCAAAGUAUUUAGUUA
Readout Kind: pre-steady-state target cleavage rate
Reported Value: 0.00729

Input Sequence: UCCUGGAUGUCCUUGCAUAGGUAUUUAGUUA
Readout Kind: pre-steady-state target cleavage rate
Reported Value: 0.00689

Input Sequence: UCCUGGAUCAGCAUGCAUAGUUUUUAGUUA
Readout Kind: pre-steady-state target cleavage rate
Reported Value: 0.00668

Entry UCCUGGAUGUGCUUGCAUAGUAUAAAGUUA has what pre-steady-state target cleavage rate?
0.00318

Same lookup for UCCUGGUACAGAUUGCAUAGUAUUUAGUUA , please.
0.0104

Same lookup for UCCUGGAUGUCGAACGUUUGUAUUUAGUAA , please.
< 0.0001

Same lookup for UCCUGGAACCGCUUGCAUAGUAUUUAGUUA , please.
0.0108

Same lookup for UCCUGGUACAGUUUGCAUAGUAUUUAGUUA , please.
0.0161

---

# System: MILI (PIWIL2) piRISC loaded with L1MC piRNA (26 nt);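 further: 1 nM active piRISC with 0.1 nM target library at 33 °C single turnover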
# Protocol: pre-steady-state target cleavage rate (min^-1); guide: L1MC piRNA 5'p-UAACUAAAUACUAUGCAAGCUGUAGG; higher = faster piRNA-guided slicing of the target
# Test Conditions: auxiliary factor: 500 nM mouse GTSF1
Readout Kind: pre-steady-state target cleavage rate

Input Sequence: UCCUCCUACACGUUGCAUAGUAUUUUCAAA
pre-steady-state target cleavage rate: 0.0568

Entry UCCUCCUACUGCUUGCAUAGAAUUUAGUUA has what pre-steady-state target cleavage rate?
0.0415

Same lookup for UCCUGGAUGACCUUGCAUAGUAUUUACAAA , please.
0.114

Same lookup for UCCUCCUACAGCUAGCUUAGUAUUUAGUUA , please.
0.206

Same lookup for UCCUGGAUGUGGUUGCAAAGUAUUUAGUUA , please.
0.0262

Same lookup for UCCUCCUACAGCUACCAUAGUAUUUAGUUA , please.
0.2

Same lookup for UCCUGGAUGUCCAUGCAUAGUAUUUAGUAA , please.
0.0373

---

# Test system: EfPiwi piRISC loaded with piRNA #1 (26 nt)
# Protocol: pre-steady-state target cleavage rate (min^-1); auxiliary factor: 500 nM Ephydatia muelleri Gtsf1; guide: piRNA #1 5'p-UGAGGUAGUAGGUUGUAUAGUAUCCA; higher = faster piRNA-guided slicing of the target
In this section, each of the sequences is paired with its reported pre-steady-state target cleavage rate.
Give your answer as a number; write no unit.

Solved cases (5 shown):
Input Sequence: GGAGUGGUUACUAUACAACCUACUACGUCA
Target: EfPiwi piRISC loaded with piRNA #1 (26 nt)
Readout Kind: pre-steady-state target cleavage rate
Reported Value: 0.00307

Input Sequence: GGAGAGGUUACUUUACAACCUACUACCUCA
Target: EfPiwi piRISC loaded with piRNA #1 (26 nt)
Readout Kind: pre-steady-state target cleavage rate
Reported Value: 0.00375

Input Sequence: GGAGACGAAACUAUACAACGUACUACCUCA
Target: EfPiwi piRISC loaded with piRNA #1 (26 nt)
Readout Kind: pre-steady-state target cleavage rate
Reported Value: 0.00237

Input Sequence: GGAGACCUAACUAUACAAGCUACUACCUCA
Target: EfPiwi piRISC loaded with piRNA #1 (26 nt)
Readout Kind: pre-steady-state target cleavage rate
Reported Value: 0.00482

Input Sequence: GGAGAGGAUACUUAUACAACCUACUACCUCA
Target: EfPiwi piRISC loaded with piRNA #1 (26 nt)
Readout Kind: pre-steady-state target cleavage rate
Reported Value: 0.112

Entry GGAGACCUAACUAAACAACCUACUACCUCA has what pre-steady-state target cleavage rate?
0.00631

Same lookup for GGAGACCUAUCUAUACAACCUCCUACCUCA , please.
0.00509

Same lookup for GGAGAGGAUACUUUACAACCUACUACGUCA , please.
0.00296

Same lookup for GGAGUGGAUACUAUACAACCUACGACCUCA , please.
0.00416

Same lookup for GGAGUGGAUACUAAACAACCUACAACCUCA , please.
0.00162

Same lookup for GGAGACCAUACUAUAAAACCUACUACCUCA , please.
0.00433

Same lookup for GGAGUGGGUACUAUACAACCUACUACCUCA , please.
0.00924

---

# Tested on: EfPiwi piRISC loaded with L1MC piRNA (26 nt)
# Protocol: pre-steady-state target cleavage rate (min^-1); auxiliary factor: 500 nM Ephydatia muelleri Gtsf1; guide: L1MC piRNA 5'p-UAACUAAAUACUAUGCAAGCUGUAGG; higher = faster piRNA-guided slicing of the target
Readout Kind: pre-steady-state target cleavage rate
Give your answer as a number; write no unit.

Input Sequence: UCCUCCUACACGCUUGCAUAGUAUUUAGUUA
Target: EfPiwi piRISC loaded with L1MC piRNA (26 nt)
pre-steady-state target cleavage rate: 0.00856

Entry UCCUGCUACAGCUUGCAUAGUAUUUAGAAA has what pre-steady-state target cleavage rate?
0.00439

Same lookup for UCCUCCUACGAGCUUGCAUAGUAUUUAGUUA , please.
0.0144

Same lookup for UCCUGGAUCAGCUUGCAAAGUAUUUAGUAA , please.
0.00607

Same lookup for UCCUGGAACACGCUUGCAUAGUAUUUAGUUA , please.
0.0331

Same lookup for UCCUGGUACAGGUUGCAAAGUAUUUAGUUA , please.
0.00511

Same lookup for UCCUCCUACUGCUUGCAUAGUAUUUUCAAA , please.
0.00274

Same lookup for UCCUCCUACACGAUGCAUAGUAUUUAGUAA , please.
0.00453

Same lookup for UCCUGGAUGAGCUUGCAAAGUAUUUAGUUA , please.
0.0322

Same lookup for UCCUGGAACAGCUUGGAUAGUAUUUAGUAA , please.
0.00371

Same lookup for UCCUGCUACAGCAUGCAUAGUUUUUAGUUA , please.
0.00363

Same lookup for UCCUGGAUCAGCUUGCAUAGUCUUUAGUUA , please.
0.0204

Same lookup for UCCUGCUACAGCUUGCAUAGUAUUUCGUUA , please.
0.00379

---

# Tested on: EfPiwi piRISC loaded with piRNA #1 (26 nt)
# Protocol: pre-steady-state target cleavage rate (min^-1); auxiliary factor: 500 nM Ephydatia muelleri Gtsf1; guide: piRNA #1 5'p-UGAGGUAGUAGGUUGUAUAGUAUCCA; MIWI and MILI are mouse PIWI proteins and EfPiwi is from a freshwater sponge; tags in brackets are library labels; higher = faster piRNA-guided slicing of the target
Readout Kind: pre-steady-state target cleavage rate
Give your answer as a number; write no unit.

Solved cases (6 shown):
Input Sequence: GGAGUCGAUACUAUACAACCUACUAGCUCA
Target: EfPiwi piRISC loaded with piRNA #1 (26 nt)
pre-steady-state target cleavage rate: 0.00304
--
Input Sequence: GGAGACCAUUCUAAACAACCUACUACCUCA
Target: EfPiwi piRISC loaded with piRNA #1 (26 nt)
pre-steady-state target cleavage rate: 0.00894
--
Input Sequence: GGAGAGGAUACUAUCAACCUACUACCUCA
Target: EfPiwi piRISC loaded with piRNA #1 (26 nt)
pre-steady-state target cleavage rate: 0.0088
--
Input Sequence: GGAGUGGUUACAAUACAACCUACUACCUCA
Target: EfPiwi piRISC loaded with piRNA #1 (26 nt)
pre-steady-state target cleavage rate: 0.00789
--
Input Sequence: GGAGAGGAUACUAUACAACCUGACUACCUCA
Target: EfPiwi piRISC loaded with piRNA #1 (26 nt)
pre-steady-state target cleavage rate: 0.00442
--
Input Sequence: GGAGACGAUACUAUACAACCUACUACCUAA
Target: EfPiwi piRISC loaded with piRNA #1 (26 nt)
pre-steady-state target cleavage rate: 0.103

Entry GGAGACCAUACUAUACAUCCUACUUCCUCA has what pre-steady-state target cleavage rate?
0.00272

Same lookup for GGAGAGGUUACUAUACAACCUACUACCACA , please.
0.00331

Same lookup for GGAGACGAUACUAUUCAAGCUACUACCUCA , please.
0.00454

Same lookup for GGAGACCUUACUAUACAACCUACUACCUGA , please.
0.00415

Same lookup for GGAGACGAUACUAUAGAAGCUACUACCUCA , please.
0.00294
